Data origin: a melting point compilation (Tetko et al.; mined from patent text by program, amines drawn as free bases though some values may be those of a salt)

property.name: melting point

{"compound": "COC(=O)c1cc(C(=O)NCC(C)C)c2cc(Cc3ccc(F)cc3)cnc2c1O", "measured.result": "178 to 179 °C"}
{"compound": "COc1ccccc1N=C(C)CC(=O)C(F)(F)F", "measured.result": "40 °C"}
{"compound": "CN(C)C=C1C(=O)N(c2cccc(F)c2)c2ccccc21", "measured.result": "87 to 88.5 °C"}
{"compound": "COCCCn1c(C=O)cc2c3c(c(-c4ccccc4Cl)cc21)C(=O)NC3=O", "measured.result": "155 to 156 °C"}
{"compound": "NS(=O)(=O)c1cccc(C2(O)CCC2)c1", "measured.result": "155 to 157 °C"}
{"compound": "COc1ccc(-c2cc(C(Nn3cnnc3)c3ccccc3OS(N)(=O)=O)ccc2C#N)cc1 (stereo not given)", "measured.result": "184 to 186 °C"}
{"compound": "CC(C)C[C@@H](C=O)NC(=O)[C@H](Cc1c[nH]cn1)NC(=O)C(CCCCc1ccccc1)Cc1cccc2ccccc12 (stereo not given in full)", "measured.result": "87 to 92 °C"}
{"compound": "CN1CCC2(CC1)NCc1cc(C(C)(C)C)cc(I)c1O2", "measured.result": "155 to 156 °C"}
{"compound": "N#Cc1cc(Sc2ccc(Cl)c(Cl)c2)ccc1[N+](=O)[O-]", "measured.result": "136 to 138 °C"}
{"compound": "Cc1ccc(C2=Nc3ccccc3N=C(N3CCN(C)CC3)C2)cc1", "measured.result": "169 to 170 °C"}

* * *

property.name: melting point

{"compound": "Cc1ccc(C(=O)N2CCN(CC3(C)Cc4c(C)c(N)c(C)c(C)c4O3)CC2)cc1 (stereo not given)", "property.name": "melting point", "measured.result": "131 to 133 °C"}
{"compound": "COc1ccc2sc(C(N)=O)c(Cl)c2c1", "property.name": "melting point", "measured.result": "220 to 222 °C"}
{"compound": "COc1ccc2c(c1)c(CC(=O)OCC(=O)OC(C)(C)C)c(C)n2C(=O)c1ccc(Cl)cc1", "property.name": "melting point", "measured.result": "96 to 97 °C"}
{"compound": "CC(C)c1cc(C(C)C)c(CCC(=O)O)c(C(C)C)c1", "property.name": "melting point", "measured.result": "194 to 196 °C"}
{"compound": "CCOC(=O)c1[nH]c2cc(Cl)c(Cl)cc2c1-c1ccc(Cl)cc1Cl", "property.name": "melting point", "measured.result": "160 to 161 °C"}
{"compound": "O=C1CCC(c2ccc(Cl)c(Cl)c2)c2ccccc21 (stereo not given)", "property.name": "melting point", "measured.result": "99 to 101 °C"}
{"compound": "COc1cccc(C2=C(CC(C)=NO)C(=O)NCCC2)c1", "property.name": "melting point", "measured.result": "155 to 158 °C"}
{"compound": "CN1CCC(c2c(O)cc(O)c3c(=O)cc(-c4ccc(C(F)(F)F)cc4)oc23)C1CO (stereo not given)", "property.name": "melting point", "measured.result": "238 °C"}
{"compound": "Brc1ccc(C2CC(n3ccnc3)c3ccccc3N2)cc1 (stereo not given)", "property.name": "melting point", "measured.result": "142 to 144 °C"}
{"compound": "CCCCOc1nc(N)c2ncn(C3CCCCC3)c2n1", "property.name": "melting point", "measured.result": "138 to 141 °C"}

* * *

property.name: melting point

{"molecule": "O=C(Cc1ccccc1)NC1CN(C(C(=O)O)c2ccc(O)cc2)C1=O (stereo not given)", "measured.result": "134 to 141 °C"}
{"molecule": "CC(=O)N(C)[C@@H]1CN2C(=O)N(c3cc(Cl)cc(Cl)c3)C(=O)[C@@]2(Cc2ccc(OC(F)(F)F)cc2)C1", "measured.result": "74.7 °C"}
{"molecule": "O=[N+]([O-])c1ccc(NCCSCc2c[nH]cn2)nc1", "measured.result": "145 to 147 °C"}
{"molecule": "CNC(=O)c1ccc(C)c(-c2nc(SC)nc3c2CNC(=O)N3c2c(F)cccc2F)c1", "measured.result": "273 to 275 °C"}
{"molecule": "COc1ccc(C(=O)C2=C(c3ccccc3)CCc3ccccc32)cc1", "measured.result": "106 to 107 °C"}

* * *

# reported melting point; entries follow

{"compound": "Oc1cccc2c1CCC2N1CCCCC1 (configuration not stated)", "melting point": "134 to 136 °C"}
{"compound": "CC(=O)c1cc(C)c2c(n1)-c1ccccc1C2=O", "melting point": "170 to 172 °C"}
{"compound": "O=C(Nc1cscn1)Nc1cccc2c1C1CCCCN1C2=O (configuration not stated)", "melting point": "178 to 180 °C"}
{"compound": "CCc1ccc(C#Cc2ccc(C=O)cc2)cc1", "melting point": "117 °C"}
{"compound": "O=C(O)c1cc(S)cc2c1OCCO2", "melting point": "191 to 192 °C"}
{"compound": "CN1CC[C@]2(c3cccc(O)c3)CC=CC[C@@H]2C1 (relative stereo)", "melting point": "159 °C"}
{"compound": "CCc1cccc(CC)c1N1C(=S)N(C)C(O)C1O (configuration not stated)", "melting point": "87 to 90 °C"}
{"compound": "CSC(=C[N+](=O)[O-])NCCCCc1ccccn1", "melting point": "78 °C"}
{"compound": "O=Cc1c(Cl)cc(Cl)cc1OCc1ccccc1", "melting point": "98 to 100 °C"}
{"compound": "CS(=O)(=O)OCCCC1Oc2cc3c(cc2NC1=O)CCCC3 (configuration not stated)", "melting point": "153 to 154 °C"}
{"compound": "CC(=O)Nc1ccc2c3c1c(=O)c(C(=O)O)cn3C1CCCCC21 (configuration not stated)", "melting point": "187 to 190 °C"}
{"compound": "COc1ccc(-c2cnc(SC(F)(F)C(F)F)nc2-c2ccc(OC)cc2)cc1", "melting point": "118 to 120 °C"}
{"compound": "CCCOc1ccc(C=CC(=O)c2c(OC)cc(OC)cc2OC(=O)CC)cc1", "melting point": "102 °C"}
{"compound": "COC(=O)CN1CCC(OC)(c2cccc(OCc3ccc4ccccc4c3)c2)C1 (configuration not stated)", "melting point": "78 to 80 °C"}
{"compound": "CCc1cnc2c(NC(=O)c3c(Cl)cccc3Cl)cccc2c1CCl", "melting point": "193 to 194 °C"}
{"compound": "N#Cc1c(N)nc2ccc(N3CCOCC3)cc2c1O", "melting point": "291 °C"}
{"compound": "Cc1ccc(Cc2cnc(NCCCNc3ccccn3)[nH]c2=O)cn1", "melting point": "163 to 165 °C"}
{"compound": "COc1cccc(C=CC(=O)C2C(=O)OC(=O)C(C(C)=O)=C2O)c1OC (configuration not stated)", "melting point": "175 to 176 °C"}
{"compound": "c1ccc(-c2ccc3cc(COc4ccc(CCCn5ccnc5)cc4)cnc3c2)cc1", "melting point": "135 to 136 °C"}
{"compound": "CCCCCCCCC1(C)Cc2ccc(-c3nc4cc(CCCC)ccc4o3)cc2C1=O (configuration not stated)", "melting point": "93 °C"}
{"compound": "CC(C)NC1=NS(=O)(=O)c2ccc(CC(N)=O)cc2N1", "melting point": "321 to 325 °C"}
{"compound": "C=CCN1C(=O)C2CC2(c2ccc(N)cc2)C1=O (configuration not stated)", "melting point": "104 to 106 °C"}

* * *

Recorded melting point for the following compounds
property.name: melting point

{"smiles.input": "COC(=O)c1ccc([N+](=O)[O-])cc1S(=O)(=O)N(C)C", "property.name": "melting point", "measured.result": "93 to 96 °C"}
{"smiles.input": "CCOc1cc(Cn2cc(CCC(=O)O)c(-c3ccccc3)c2)cc(OCc2csc(-c3ccccc3)n2)c1", "property.name": "melting point", "measured.result": "109 to 110 °C"}
{"smiles.input": "CCON1CCC2(CC1)NC(=O)C(c1c(C)cc(C)cc1C)=C2OC(=O)C(C)(C)C", "property.name": "melting point", "measured.result": "230 to 231 °C"}
{"smiles.input": "CCN(CCOc1cccnc1[N+](=O)[O-])CCN1C(=O)c2ccccc2C1=O", "property.name": "melting point", "measured.result": "124 to 126 °C"}
{"smiles.input": "COC1CN(c2ccc([N+](=O)[O-])cc2F)C1", "property.name": "melting point", "measured.result": "57.5 to 58 °C"}
{"smiles.input": "COC(=O)Oc1c(Cl)cc(Cl)cc1[N+](=O)[O-]", "property.name": "melting point", "measured.result": "60 to 61 °C"}
{"smiles.input": "CCOC(=O)c1cnc(-c2ccc(Cl)cc2)s1", "property.name": "melting point", "measured.result": "144 to 145 °C"}
{"smiles.input": "CCCC=Cc1c(C(C)C)nc(C(C)C)c(C(=O)OCC)c1-c1ccc(CC)cc1", "property.name": "melting point", "measured.result": "67 to 68 °C"}
{"smiles.input": "COc1cccc(N(CCN2CCC(C(=O)c3ccc(F)cc3)CC2)C(=O)c2ccc(NC(N)=O)cc2)c1", "property.name": "melting point", "measured.result": "123 to 128 °C"}
